Cited source for all entries: patent US11576897B2

target: UniProtKB P28223; test: biochemical; format: binding; conditions: read-out: 5-HT2A receptor binding inhibition constant Ki
MEASURE: Ki (nM)
Quick reminder: number only, in nM, skip the unit.

[Q] What measured Ki goes with CNCc1cc(OCc2cc(C)ccc2F)n(C(C)C2CCCCC2)n1 (centres unmarked) ?
[A] 2.5

[Q] Quick one: Ki of CNCc1cc(OCc2cc(F)ccc2F)n(CC2CC3CCC2C3)n1 (centres unmarked) ?
[A] 0.76

[Q] Dear colleague, I am looking for the recorded Ki of the following compound: `CNCc1cc(OCc2ccccc2C#N)n(CC2CCCC2)n1`
[A] 2.7

[Q] Quick one: Ki for CNCc1cc(OCc2ccccc2)n(C(CF)C2CCCCC2)n1 (centres unmarked) ?
[A] 2.8

[Q] Given the compound CNCc1cc(OCc2cccc(Cl)c2)n(CC2CCc3ccccc3O2)n1 (centres unmarked) , what is its reported Ki?
[A] 4.9

[Q] I would be grateful if you could share the reported Ki for `CNCc1cc(OCc2ccccc2)n(CC2CCCCC2)n1` .
[A] 5.9

[Q] Entry under review: `CNCc1cc(OCc2cc(F)ccc2Cl)n(CC2CCCCC2)n1` . Reported Ki?
[A] 2.1

[Q] I am curious: what Ki value has been reported for CNCc1cc(OCc2cc(Cl)ccc2F)n(C(C)C2CCCCC2)n1 (centres unmarked) ?
[A] 1.4

[Q] Bench note: what Ki did CNCc1cc(OCc2ccccc2)n(C(C)C2CCCC2)n1 (centres unmarked) show?
[A] 5.2

[Q] Quick one: Ki for `CNCc1cc(OCc2ccc(F)cc2F)n(CC2CCCC2)n1` ?
[A] 0.2

[Q] If you can, please state the reported Ki value of `CNCc1cc(OC(F)(F)c2ccccc2)n(CC2CCCCC2)n1` .
[A] 6

[Q] Report Ki for `CNCc1cc(OCc2ccc(F)cc2C)n(CC2CCCCC2)n1` please.
[A] 1.4

[Q] Entry `CNCc1cc(OCc2cc(Cl)ccc2F)n(CC2CCCC2)n1` has what Ki?
[A] 1.8

[Q] Can you look up the measured Ki of `CNCc1cc(OCc2ccccc2F)n(Cc2ccc(F)cc2)n1` for me?
[A] 1.2

###

What Ki was measured for each of the following?
target: UniProt P28223; test: biochemical; assay type: binding; conditions: [3H]-ketanserin, human 5-HT2A receptor-expressed CHO cell membrane; read-out: 5-HT2A receptor binding inhibition constant Ki
Where a name gives a salt, the structure may show the parent alone.
Answer in nM, number only, no unit symbol.

[Q] Return Ki measured with UniProt P28223 given this compound: `CNCc1cc(OCc2cc(F)ccc2F)n(CC2CCCCC2)n1`
[A] 0.5

[Q] Enter reported Ki observed with UniProt P28223 for CNC(C)c1cc(OCc2cc(F)ccc2F)n(CCC2CCCC2)n1 (centres unmarked)
[A] 0.6

[Q] Hello, I am looking for reported Ki with UniProt P28223 for CNCc1cc(OCc2ccc(F)cc2)n(C(C)C2CCCCC2)n1 (centres unmarked) . Could you help?
[A] 0.74

[Q] Fill in the recorded Ki for this compound, with UniProt P28223 as test system: `CNCc1cc(OCc2cc(F)c(F)cc2F)n(CCC(C)(C)C)n1`
[A] 1.8

[Q] Identify the measured Ki of `CNCc1cc(OCc2cc(F)c(F)cc2F)n(CC2CCCC2)n1` for UniProt P28223.
[A] 1.3

[Q] Enter reported Ki observed with UniProt P28223 for CNCc1cc(OCc2cccc(Cl)c2)n(CC2OC3CCC2CC3)n1 (centres unmarked)
[A] 9.4

[Q] I'm curious: which Ki was measured for CNCc1cc(OCc2ccccc2F)n(C(C)C2CCCCC2)n1 (centres unmarked) tested on UniProt P28223?
[A] 1.1

[Q] Find the measured Ki: item `CNCc1cc(OCc2cc(F)ccc2F)n(CCC(C)(C)C)n1` , target or system UniProt P28223.
[A] 0.65

[Q] For the record CNCc1cc(OCc2ccccc2)n(CC2CC3CCC2C3)n1 (centres unmarked) , what value of Ki is listed for UniProt P28223?
[A] 1

[Q] Query Ki on UniProt P28223 for [2H]C([2H])(Oc1cc(CNC)nn1CC1CCCC1)c1cc(F)ccc1F [Example 495, Hydrochloride]
[A] 2

[Q] Give UniProt P28223 Ki for `CNCc1cc(OCc2ccccc2)n(CC2(C)CCCCC2)n1`
[A] 2.8

[Q] Please state recorded Ki (tested on UniProt P28223) of `CNCc1cc(OCc2ccccc2Cl)n(CC2CCCC2)n1`
[A] 11

[Q] What value of Ki on UniProt P28223 does `CNCc1cc(OCc2cc(F)ccc2F)n(Cc2ccc(F)cc2)n1` have?
[A] 1.3

[Q] Please state recorded Ki (tested on UniProt P28223) of CNCc1cc(OCc2ccccc2C)n(C(C)C2CCCCC2)n1 (centres unmarked)
[A] 3.3

[Q] I'm curious: which Ki was measured for `CNCc1cc(OCc2cc(Cl)ccc2F)n(CC(C)C)n1` tested on UniProt P28223?
[A] 4.5

[Q] Item: `CNCc1cc(OCc2cc(F)ccc2F)n(CC2CCC(F)(F)CC2)n1` Test system: UniProt P28223 Read-out: Ki Value: ?
[A] 1.7

[Q] # query: Ki | item CNCc1cc(OCc2ccc(F)cc2Cl)n(C(C)C2CCCCC2)n1 (centres unmarked) | system: UniProt P28223
[A] 0.88

[Q] Could you share what Ki was measured for CNCc1cc(OCc2cccc(C)c2)n(C(C)C2CCCCC2)n1 (centres unmarked) , tested on UniProt P28223?
[A] 5.6

[Q] Checklist item: Ki tested on UniProt P28223, entry CNCc1cc(OCc2ccccc2)n(C(C)C2CCCCC2)n1 (centres unmarked) , value?
[A] 1.2

[Q] Hi! What's the reported Ki for CNCc1cc(OCc2ccc(F)cc2F)n(C(C)C2CCCCC2)n1 (centres unmarked) on UniProt P28223?
[A] 0.57
